target.or.test.system: T1, biotinylated synthetic human Amyloid beta 1-42 peptide (human, UniProt P05067 672-713, biotinylated (N-terminal biotin in Example 4))
T1 construct: domain: Amyloid beta 1-42 peptide; Numbers 1-42 count on the Amyloid beta peptide, not on APP; also called biotinylated human Amyloid beta 1-42; N-terminal biotin Abeta 1-42
T1 sequence (P05067 672-713 limits assumed): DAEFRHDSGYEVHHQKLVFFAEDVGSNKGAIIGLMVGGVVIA
protocol.summary: SPR (ProteOn); biotinylated peptide on streptavidin chip, scFv in solution
Please respond with reported koff for every item in the list.
I'd appreciate it if you included the unit after the number.

Data request: Reported koff, binder Abet0374 scFv (scFv, V domains shown, not shown: small tags and cut ends, Purified scFv expressed in E. coli) VH: EVQLLESGGGLVQPGGSLRLSCAASGFQFKDTPMWWVRQAPGKGLEWVSVIGDQNHKKAYADSVKGRFTISRDNSKNTLYLQMNSLRAEDTAVYYCAREWMDHSRPYYYYGMDAWGQGTLVTVSS VL: SYELTQPPSVSVTPGQTASITCSGHNLGGKFASWYQQKPGQSPVLVIYRDDKRPSGIPERFSASNFGHTATLTISGTQATDEADYYCSSQDTVTRVFGGGTKLTVL : ____
Data returned: 6.04e-05 s⁻¹

Data request: Reported koff, binder Abet0381 scFv (scFv, V domains shown, not shown: small tags and cut ends, Purified scFv expressed in E. coli) VH: EVQLLESGGGLVQPGGSLRLSCAASSPSFPRETMWWVRQAPGKGLEWVSVIGTQPNRLTYADSVKGRFTISRDNSKNTLYLQMNSLRAEDTAVYYCAREWMDHSRPYYYYGIDVWGQGTLVTVSP VL: SYELTQPPSVSASPGQTASITCSGHNLEDKFVSWYQQKPGQSPVLVIYRDDKRPSGIPERFSASNSGHTATLTISGTQATDEANYYCSSQDTVTRAFGGGTKLTVL : ____
Data returned: 5.14e-05 s⁻¹

Data request: Reported koff, binder Abet0373 scFv (scFv, V domains shown, not shown: small tags and cut ends, Purified scFv expressed in E. coli) VH: EVQLLESGGGLVQPGGSLRLSCVASGFDFERSVMWWVRQAPGKRLEWVSVIGSGKTNITYADSVKGRFTISRDNSKNTLYLQMNSLRAEDTAVYYCAREWMDHSRPYYYYGMDVWGQGTLVTVSS VL: SYELTQPPSVSVSPGQTASITCSGHNLEDKFASWYQQKPGQSPVLVIYRDDKRPSEIPERFSASNSGHTATLTISGTQATDEADYYCSSQDTVTRVFGGGTKLTVL : ____
Data returned: 8.92e-05 s⁻¹

Data request: Reported koff, binder Abet0344 scFv (scFv, V domains shown, not shown: small tags and cut ends, Purified scFv expressed in E. coli) VH: EVQLLESGGGLVQPGGSLSLSCAASGFTFSVYTMWWVRQAPGKGLEWVSVIGGNETRKAYADSVKGRFTISRDNSKNRLYLQMNSLRAEDTAVYYCAREWMDHSRPYYYYGMDVWGQGTLVTVSS VL: QSVLTQPPSVSVSPGQTASITCSGHNLEDKFASWYQQKSGQSPVLVIYRDDKRPSGIPERFSASNSGHTATLTISGTQATDEADYYCATQDNFTRVFGGGTKLTVL : ____
Data returned: 5.73e-05 s⁻¹

Data request: Reported koff, binder Abet0369 scFv (scFv, V domains shown, not shown: small tags and cut ends, Purified scFv expressed in E. coli) VH: EVQLLESGGGLVQPGGSLRLSCAASSFQISKNTMWWVRRAPGKGLEWVSVIGKDETRFNYADSVKGRFTISRDNSKNTLYLQMNSLRAEDTAVYYCAREWMDHSRPYYYYGMDVWGQGTLVTVSS VL: SYGLTQPPSVSVSPGQTASITCSGRNIGDSWVAWYQQKPGQSPVLVIYRDDKRPSGIPERFSASNSGHTATLTISGTQATDEADYYCSSQDTVTRVFGGGTKLTVL : ____
Data returned: 4.34e-05 s⁻¹

Data request: Reported koff, binder Abet0372 scFv (scFv, V domains shown, not shown: small tags and cut ends, Purified scFv expressed in E. coli) VH: EVQLLESGGGLVQPGGSLRLSCAASSDMFNIETMWWVRQAPGKGLEWVSVIGKGMNNVSYADSVKGRFTISRDNSKNTLYLQMNSLRAEDTAVYYCAREWMDHSRPYYYYGMDVWGQGTLVTVSS VL: SYELTQPPSVSVSPGQTASITCSGHNLEDKFASWYQQKPGQSPVLVIYRDDKRPSGIPERFSASNSGHTATLTISGTQATDEADYYCSSQDTVTRVFGGGTKLTVL : ____
Data returned: 0.000176 s⁻¹

Data request: Reported koff, binder Abet0370 scFv (scFv, V domains shown, not shown: small tags and cut ends, Purified scFv expressed in E. coli) VH: EVQLLESGGGLVQPGGSLRLSCAASGFHFPMSAMWWVRQAPGKGLEWVSVIGETPERQAYADSVKGRFTISRDNSKSTLYLQMNSLRAEDTAVYYCAREWMDHSRPYYYYGMDVWGQGTLVTVSS VL: SYELTQPPSVSVSPGQTASITCTTPHFNSKFASWYQQKPGQSPVLVIYRDDKRPSGIPERFSASNSGHTATLTISGTQAMDEADYYCQAQDSTTRVFGGGTRLTVL : ____
Data returned: 7.76e-05 s⁻¹

Data request: Reported koff, binder Abet0371 scFv (scFv, V domains shown, not shown: small tags and cut ends, Purified scFv expressed in E. coli) VH: EVQLSESGGGLVQPGGSLRLSCAASHDAFPFDTMWWVRQAPGKGLEWVSVIGSSGGTTVYADSVKGRFTVSRDNSKNTLYLQMNSLRAEDTAVYYCAREWMDHSRPYYYYGMDVWGQGTLVTVSS VL: SYELTQPPSVSVSPGQTASITCSGHNISSSWVSWYQQKPGQSPVLVIYRDDKRPSGIPERFSASNSGHTATLTISGTQATDEADYYCSSQDTVTRVFGGGTKLTVL : ____
Data returned: 0.000272 s⁻¹

Data request: Reported koff, binder Abet0383 scFv (scFv, V domains shown, not shown: small tags and cut ends, Purified scFv expressed in E. coli) VH: EVQLLESGGGLVQPGGSLKLSCAASGFTFDWYPMWWVRQAPGKRLEWISVIGADNAKIAYADSVKGRFTISRDNSKNTLYLQMNSLRAEDTAVYYCAREWMGHSRPYYYYGMDVWGQGTPVTVSS VL: SYELTQPPSVSVSPGQTASITCSGHNLGDKFASWYQQKPGQSPVLVIYRDDKRPSGIPERFSASNSGHTATLTISGTQATDEADYYCSSQDTVTRVFGGGTKLTVL : ____
Data returned: 3.94e-05 s⁻¹

Data request: Reported koff, binder Abet0319 scFv (scFv, V domains shown, not shown: small tags and cut ends, Purified scFv expressed in E. coli) VH: EVQLLESGGGLVQPGGSLRLSCAASVSVYNKDTMWWVRQAPGKGLEWVSVIGSSGGTTVYADSVKGRFTISRDNSKNTLYLQMNSLRAEDTAVYYCAREWMDHSRPYYYYGMDVWGQGTLVTVSS VL: SYELTQPPSVSVSPGQTASITCSGHNIMDKWVSWYQQKPGRSPALVIYRDDKRPSGIPERFSASNSGHTATLTISGTQATDEADYYCSSQDTVTRVFGGGTKLTVL : ____
Data returned: 0.000129 s⁻¹

Recorded values, source patent US20190262327A1.
